Tested on: HCV replicon 1AY93H
Assay: microbe, parasite or virus in culture
Format: cell-based, Hepatitis C virus (HCV)
Settings: read-out: 1A Y93H IC50; HCV replicon 1A Y93H; Replicon Assay A
Measurement label: pIC50
Answers are plain numbers, as −log10 of the molar value.

Need pIC50 of COC(=O)N[C@H](C(=O)N1CCC[C@H]1c1ncc(-c2ccc3c(c2)OC(c2cc4ccccc4s2)n2c-3cc3cc(-c4cnc([C@@H]5C[C@H]6C[C@H]6N5C(=O)[C@@H](NC(=O)OC)C(C)C)[nH]4)ccc32)[nH]1)C(C)C (single isomer, unassigned) [Compound 610] , thanks. 9.34
